From: patent US20180037631A1

STUDY TARGET: EGFR on the surface of human tumour cells (A431, H292) (human, UniProt P00533 25-1210)
MEASUREMENT NOTES: cell-based or functional assay
Listed here: items and their measured % inhibition of EGFR phosphorylation at 100 nM binder, cell-based assay.
OBSERVABLE: % inhibition of EGFR phosphorylation at 100 nM binder, cell-based assay (%)

>  <BINDER>
E98 (designed binder) 10Fn3 domain: MGVSDVPRDLEVVAATPTSLLISWDAPTSRYQYYRITYGETGGNSPVQEFTVPGGVRTATISGLKPGVDYTITVYAVTDHKPHADGPHTYHEYPISINYRTEIDKPSQ

>  <VALUE UNITS>
%

>  <RESULT VALUE>
75.8

$$$$
>  <BINDER>
E91 (designed binder) 10Fn3 domain: MGVSDVPRDLEVVAATPTSLLISWSAPWRTYQYYRITYGETGGNSPVQEFTVPYDVYTATISGLKPGVDYTITVYAVTDYLNPNTLEYTYQRIPISINYRTEIDKPSQ

>  <VALUE UNITS>
%

>  <RESULT VALUE>
84.7

$$$$
